Sourced from the SangsterLogP compilation

# TEST NAME: method code SF-TN, from DOI: 10.1021/jm00251a007, PMID: 4151492
// reported logP per item
Output: the number by itself.

Examples with answers:
CC(C)NCC(O)COc1ccc2c(OCC(O)CNC(C)C)cccc2c1 (stereo unspecified)	0.87
CC(C)NCC(O)COc1cccc(OCC(O)CNC(C)C)c1 (stereo unspecified)	0.73
CC(C)NCC(O)COc1ccc2ccccc2c1OCC(O)CNC(C)C (stereo unspecified)	1.07
CC(C)NCC(O)COc1ccccc1-c1ccccc1OCC(O)CNC(C)C (stereo unspecified)	0.97

Fill in the blank: the reported logP of CC(C)NCC(O)COc1cccc2cccc(OCC(O)CNC(C)C)c12 (stereo unspecified) is ____.
1.37

Fill in the blank: the reported logP of CC(C)NCC(O)COc1ccc(OCC(O)CNC(C)C)cc1 (stereo unspecified) is ____.
0.67

Fill in the blank: the reported logP of CC(C)NCC(O)COc1ccc(OCC(O)CNC(C)C)c2ccccc12 (stereo unspecified) is ____.
0.93

Fill in the blank: the reported logP of CC(C)NCC(O)COc1ccccc1 (stereo unspecified) is ____.
1.76

Fill in the blank: the reported logP of CC(C)NCC(O)COc1cc(OCC(O)CNC(C)C)c2ccccc2c1 (stereo unspecified) is ____.
0.99

Fill in the blank: the reported logP of CC(C)NCC(O)COc1cccc2c(OCC(O)CNC(C)C)cccc12 (stereo unspecified) is ____.
0.98

Fill in the blank: the reported logP of CC(C)NCC(O)COc1ccccc1OCC(O)CNC(C)C (stereo unspecified) is ____.
0.63
